Data provenance: patent US8178506B2

test system: B16-F10 cells; assay: Cell cycle assay in B16-F10 cells; format: cell-based, mouse; conditions: 150 nM, 48 hours, relative to untreated control
In the oligonucleotide strings, read from the 5' end, every base follows the letter of its sugar. An asterisk marks phosphorothioate; unmarked linkages are phosphodiester. Other units and linkages are bracketed, terminal groups are in braces. A string of capitals states the bases alone. e = 2'-O-(2-methoxyethyl) (MOE); [5mC] = 5-methylcytosine; d = 2'-deoxy (DNA)
I'd appreciate it if you could supply % cells in cell cycle phase aneuploid values for the items below.
The reply should contain only the number, in %.

Q: Retrieve % cells in cell cycle phase aneuploid measured for 25691 (antisense eG*e[5mC]*e[5mC]*eA*eA*dG*dG*d[5mC]*dG*dT*dG*dA*d[5mC]*dA*dT*eG*eA*eT*eA*eT) [compound 25691] and print it.
A: 105

Q: Retrieve % cells in cell cycle phase aneuploid measured for 328759 (antisense eG*eA*eG*eG*eG*dA*dT*dT*dG*dT*dA*dT*dG*dA*dA*e[5mC]*eA*eT*e[5mC]*eT) [compound 328759] and print it.
A: 126

Q: Retrieve % cells in cell cycle phase aneuploid measured for 328744 (antisense e[5mC]*eG*eG*eA*eT*d[5mC]*d[5mC]*dT*dG*dT*dT*dA*d[5mC]*d[5mC]*dT*e[5mC]*eA*e[5mC]*e[5mC]*eA) [compound 328744] and print it.
A: 115

Q: Retrieve % cells in cell cycle phase aneuploid measured for 327933 (antisense eA*eA*eG*eG*eG*eA*eT*eT*e[5mC]*e[5mC]*eT*eG*eG*eG*eA*eA*eA*eA*e[5mC]*eT*eG*eG*eA*e[5mC]) [compound 327933] and print it.
A: 130

Q: Retrieve % cells in cell cycle phase aneuploid measured for 345395 (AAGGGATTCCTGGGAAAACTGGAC; sugars from the 5' end e5 d10 e9, all phosphorothioate, methylation of C not given here) [compound 345395] and print it.
A: 150

* * *

tested on: BJ, B16-F10, T47D, T47Dp53 and HeLa cells; assay: Cell cycle assay (propidium iodide flow cytometry), cell line panel; assay type: cell-based; conditions: 150 nM oligomeric compound, 4.5 μg/ml LIPOFECTIN, after 72 hours, propidium iodide flow cytometry
In the oligonucleotide strings, read from the 5' end, every base follows the letter of its sugar. An asterisk marks phosphorothioate; unmarked linkages are phosphodiester. Other units and linkages are bracketed, terminal groups are in braces. A string of capitals states the bases alone. e = 2'-O-(2-methoxyethyl) (MOE); [5mC] = 5-methylcytosine; d = 2'-deoxy (DNA)
Decide using SubG1 (percentage of cells in phase of the cell cycle): a value greater than or equal to 8% is Fulfilled, a smaller one is Not fulfilled.

Q: // inclusive: SubG1 (percentage of cells in phase of the cell cycle) at least 8%? input: 327902 (antisense eG*eG*e[5mC]*eT*eG*eT*e[5mC]*eA*eA*eT*eT*e[5mC]*eA*eT*eA*eG*eG*eT*e[5mC]*eA*eG) [compound 327902]
A: Fulfilled

Q: // inclusive: SubG1 (percentage of cells in phase of the cell cycle) at least 8%? input: 327908 (antisense e[5mC]*eA*eA*eT*eG*e[5mC]*eA*eA*e[5mC]*eT*eA*e[5mC]*eA*eA*eT*eG*e[5mC]*eA*e[5mC]) [compound 327908]
A: Not fulfilled

Q: // inclusive: SubG1 (percentage of cells in phase of the cell cycle) at least 8%? input: 327904 (antisense eA*e[5mC]*eT*e[5mC]*eA*e[5mC]*e[5mC]*eG*eA*e[5mC]*eA*eG*e[5mC]*eG*eT*eT*eG*eA*eA*eT*eG*eT*eT) [compound 327904]
A: Fulfilled

Q: // inclusive: SubG1 (percentage of cells in phase of the cell cycle) at least 8%? input: 328691 (e[5mC]*e[5mC]*e[5mC]*e[5mC]*eA*dT*d[5mC]*dT*dT*dA*dG*d[5mC]*dA*dT*d[5mC]*eT*eA*eA*eG*eG) [compound 328691]
A: Not fulfilled

Q: // inclusive: SubG1 (percentage of cells in phase of the cell cycle) at least 8%? input: 328423 (antisense e[5mC]*e[5mC]*eA*e[5mC]*eA*dT*dA*dT*dA*d[5mC]*dA*dT*dA*dT*dA*eT*eA*e[5mC]*eG*e[5mC]) [compound 328423]
A: Not fulfilled

Q: // inclusive: SubG1 (percentage of cells in phase of the cell cycle) at least 8%? input: 328419 (antisense eT*eG*eT*eT*eG*d[5mC]*d[5mC]*dT*dA*dA*d[5mC]*dG*dA*dA*d[5mC]*eA*e[5mC]*eA*eG*eA) [compound 328419]
A: Not fulfilled

Q: // inclusive: SubG1 (percentage of cells in phase of the cell cycle) at least 8%? input: 328436 (antisense eG*eA*eA*eA*eA*dT*dT*dA*dT*dA*dT*dT*dG*dA*d[5mC]*eT*e[5mC]*eT*eG*eA) [compound 328436]
A: Not fulfilled

Q: // inclusive: SubG1 (percentage of cells in phase of the cell cycle) at least 8%? input: 340365 (antisense TACTTTATATAGAACACAAG; sugars from the 5' end e5 d10 e5, all phosphorothioate, methylation of C not given here) [compound 340365]
A: Not fulfilled

* * *

tested on: adipocytes; assay: Triglyceride accumulation assay in adipocytes; type: cell-based, human; conditions: Table 18; differentiating adipocytes; control = treatment with ISIS 342673
In the oligonucleotide strings, read from the 5' end, every base follows the letter of its sugar. An asterisk marks phosphorothioate; unmarked linkages are phosphodiester. Other units and linkages are bracketed, terminal groups are in braces. A string of capitals states the bases alone. e = 2'-O-(2-methoxyethyl) (MOE); [5mC] = 5-methylcytosine
Parameter Measured: TG (triglyceride accumulation)

Q: Retrieve TG (triglyceride accumulation) measured for 327969 (antisense eT*eG*eT*eG*eA*eG*eT*eT*e[5mC]*eT*eA*e[5mC]*e[5mC]*eA*eT*eT*eG*e[5mC]*e[5mC]*eA*eA*eA) [compound 327969] and print it.
A: 46.0 percentage of control

Q: Retrieve TG (triglyceride accumulation) measured for 328114 (antisense eA*eA*eT*e[5mC]*eT*e[5mC]*eA*eT*eT*eT*eT*e[5mC]*eA*eT*eA*e[5mC]*eT*eT*eG*e[5mC]*eA) [compound 328114] and print it.
A: 117.3 percentage of control

Q: Retrieve TG (triglyceride accumulation) measured for 328110 (antisense eG*eA*eT*eA*eA*eA*eG*e[5mC]*e[5mC]*eA*eA*eT*eA*eA*eA*e[5mC]*eT*eG*eT*e[5mC]*eA) [compound 328110] and print it.
A: 97.7 percentage of control

Q: Retrieve TG (triglyceride accumulation) measured for 328103 (antisense e[5mC]*e[5mC]*e[5mC]*eA*eA*eT*eA*eT*e[5mC]*eA*eA*eA*e[5mC]*eA*eT*eA*eT*e[5mC]*eA) [compound 328103] and print it.
A: 110.2 percentage of control

Q: Retrieve TG (triglyceride accumulation) measured for 328109 (antisense eA*eA*eA*eG*eA*eA*eG*eT*eA*eT*eA*eT*eG*e[5mC]*eA*eT*eA*eG*eG*eA*eA) [compound 328109] and print it.
A: 84.9 percentage of control

Q: Retrieve TG (triglyceride accumulation) measured for 328111 (antisense eT*e[5mC]*e[5mC]*eG*eA*eG*eT*e[5mC]*eG*eG*eA*eG*eG*eA*eG*eG*eA*eG*eG*eA*eA) [compound 328111] and print it.
A: 101.9 percentage of control

* * *

tested on: HeLa cells; assay: Cell cycle assay in HeLa cells; format: cell-based, human; conditions: HeLa cells, 150 nM oligomeric compound, 24 hours, relative to untreated control (UTC = 100)
In the oligonucleotide strings, read from the 5' end, every base follows the letter of its sugar. An asterisk marks phosphorothioate; unmarked linkages are phosphodiester. Other units and linkages are bracketed, terminal groups are in braces. A string of capitals states the bases alone. e = 2'-O-(2-methoxyethyl) (MOE); [5mC] = 5-methylcytosine; d = 2'-deoxy (DNA)
Classes (% cells aneuploid): low interval = under 70%, middle interval = from 70% up to 90%, high interval = 90% and over

Q: Class? Entry: 327910 (antisense eT*eG*eA*eT*eA*eG*e[5mC]*e[5mC]*e[5mC]*eT*eG*eT*eA*e[5mC]*eA*eA*eT*eG*e[5mC]*eT*eG*e[5mC]*eT) [compound 327910]
A: middle interval

Q: Class? Entry: 328342 (e[5mC]*eA*eA*eT*eT*dG*d[5mC]*dG*d[5mC]*dT*dA*d[5mC]*dA*dG*dA*eA*e[5mC]*eT*eG*eT) [compound 328342]
A: low interval

Q: Class? Entry: 328374 (eA*eG*e[5mC]*eT*eT*dT*dA*dG*d[5mC]*dT*dG*dG*dG*dT*d[5mC]*eA*eG*eG*eA*e[5mC]; antisense) [compound 328374]
A: high interval

Q: Class? Entry: 328419 (antisense eT*eG*eT*eT*eG*d[5mC]*d[5mC]*dT*dA*dA*d[5mC]*dG*dA*dA*d[5mC]*eA*e[5mC]*eA*eG*eA) [compound 328419]
A: middle interval

Q: Class? Entry: 340365 (antisense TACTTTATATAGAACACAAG; sugars from the 5' end e5 d10 e5, all phosphorothioate, methylation of C not given here) [compound 340365]
A: middle interval

Q: Class? Entry: 327908 (antisense e[5mC]*eA*eA*eT*eG*e[5mC]*eA*eA*e[5mC]*eT*eA*e[5mC]*eA*eA*eT*eG*e[5mC]*eA*e[5mC]) [compound 327908]
A: high interval

Q: Class? Entry: 338836 (antisense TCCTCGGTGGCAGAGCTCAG; all 2'-MOE, all phosphorothioate, methylation of C not given here) [compound 338836]
A: high interval

Q: Class? Entry: 328339 (eG*e[5mC]*eA*eG*e[5mC]*dG*d[5mC]*dA*dG*d[5mC]*dT*dG*dG*dT*d[5mC]*eT*e[5mC]*e[5mC]*e[5mC]*e[5mC]) [compound 328339]
A: low interval

Q: Class? Entry: 327957 (antisense e[5mC]*eA*e[5mC]*eA*eA*eG*eT*eT*e[5mC]*eG*eG*eA*eT*e[5mC]*eT*eA*e[5mC]*eG*eG*eG*eT*eT) [compound 327957]
A: low interval
